B1: PCDHGA10 (parent)
chain: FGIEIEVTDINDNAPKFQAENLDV

variants of: B1; experiment: protein stability index of a GFP-peptide fusion (GPS, HEK-293T) (PSI 1-6); higher = more stable; conditions: c terminus: a fixed tail appended;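 further: lentivirally expressed fusions sorted by FACS into six bins by GFP to DsRed ratio, PSI derived from sequencing read proportions per bin multiplied by bin number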
The recorded protein stability index of each item maps onto one of these classes: low bracket = under 2, middle bracket = from 2 up to 3, high bracket = 3 and over

Worked examples, 7 variants total:
SEQ_TEXT	CLASS_ASSIGNMENT
FGIEIEVTDINDNAPKFQAENLDS	high bracket
FGIEIEVTDINDMAPKFQAENLDV	middle bracket
FGIEGEVTDINDNAPKFQAENLDV	high bracket
FGREIEVTDINDNAPKFQAENLDV	high bracket
FGIEIEVTDINDNAPKFQAYNLDV	middle bracket
FGIEIEVTDINDNAPKFQAENLDN	high bracket
FEIEIEVTDINDNAPKFQAENLDV	low bracket

## Task Looking at FTIEIEVTDINDNAPKFQAENLDV , which class would you pick?
## Result low bracket

From: the supplement of paper PMC10567573
